Quick reference: koff of the listed items.
ASSAYED TARGET: T1, His-tagged human CTLA-4 (CT4-H5229; Acro Biosystems) (human, UniProt P16410 36-161)
T1 construct: bought soluble protein; also called soluble human CTLA-4; recombinant human CTLA-4; not shown: His tag
T1 sequence (P16410 36-161 limits assumed): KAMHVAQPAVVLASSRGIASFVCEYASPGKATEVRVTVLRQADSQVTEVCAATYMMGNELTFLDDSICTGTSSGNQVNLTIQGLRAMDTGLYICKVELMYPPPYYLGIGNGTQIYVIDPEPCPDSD
MEASUREMENT NOTES: SPR (Carterra)

Some entries whose results are on file:
binder="antibody A1 (L1H1) (antibody, V domains shown, also called aCTLA-4.9; CTLA4.A1) VH: QVQLVESGGGVVQPGRSLRLSCAASGFTFSSFGMHWVRQAPGKGLEWVAVIWYDGRNKYYVDSVKGRFTISRDNSNNTLYLQMNSLRAEDTAVYYCARGEFFGEFFDYWGQGTLVTVSS VL: EIVLTQSPGTLSLSPGEGATLSCRASQSFSSNYLAWYQQKPGQAPRLLIYGASSRATGIPDRFSGSGSGTDFTLTISRLEPEDFAVYYCQQYGTSPFTFGPGTKVDIK" experimental_result="0.00016 s⁻¹"
binder="antibody A17 (L17H17) (antibody, V domains shown, also called aCTLA-4.17) VH: EVQLVESGGGLVQPGGSLRLSCAASGFTFSNYAMSWVRQAPGKGLEWVSAISGGGLSTYYADSVKGRFTISRDNSKNTLYLQMNSLRAEDTAVYYCAKDLLWLGFDYWGQGTLVTVSS VL: DIQMTQSPSSLSASVGDRVTITCRASQAIRNDLGWYQQKPGKAPKRLIYAASSLQSGVPPRFSGSGSGTEFTLTISSLQPEDFATYYCLQHNSYPLTFGGGTKVEIK" experimental_result="0.0034 s⁻¹"

Here is the next item to consider.
# query: koff of entry antibody A11 (L11H11) (antibody, V domains shown, also called aCTLA-4.31) VH: QVQLVESGGGVVQPGRSLRLSCAASGFTFSSYGMHWVRQAPGKGLEWVAVIWYDVGNKYYIDSVKGRFTISRDNSKNTLYLQMNSLRAEDTAVYYCARDYYGSGSPRHFDYWGQGTLVTVSS VL: DIQLTQSPSFLSASVGDRVTITCRASQGISSYLAWYQQKPGKAPKLLIYAASTLQSGVPSRFSGSGSGTEFTLTISSLQPEDFATYYCQQLNSYPPTFGQGTKVEIK
0.00035 s⁻¹
